# tested system: HLA-A*26:01
# assay explanation: IEDB peptide-MHC binding, purified MHC/direct/fluorescence; filed as Kd, often an IC50 or EC50 that approximates it; bounds were set here for any values at or beyond the usual limits of such assays
# stated conditions: source organism: Mycobacterium tuberculosis C
quantity: Kd

Please look at this sequence and report its Kd: `KPARGGSSI`
≥ 20 µM

---

# tested system: HLA-B*53:01
# assay explanation: IEDB peptide-MHC binding, purified MHC/competitive/radioactivity; filed as Kd, often an IC50 or EC50 that approximates it; bounds were set here for any values at or beyond the usual limits of such assays
# stated conditions: source organism: Dengue virus 4 Philippines/H241/1956
quantity: pKd
pKd (log units): -log10 of the concentration in mol/L.

Please look at this sequence and report its pKd: `SPIEDIEREI`
6.39
